subject of test: T1, Soluble CDCP1 extracellular domain (CDCP1-ECD) (SEQ ID NO:30) fused to Streptavidin Binding Protein (SBP) (human, UniProt Q9H5V8 30-663)
T1 construct: also called SBP-CDCP1-ECD
T1 sequence: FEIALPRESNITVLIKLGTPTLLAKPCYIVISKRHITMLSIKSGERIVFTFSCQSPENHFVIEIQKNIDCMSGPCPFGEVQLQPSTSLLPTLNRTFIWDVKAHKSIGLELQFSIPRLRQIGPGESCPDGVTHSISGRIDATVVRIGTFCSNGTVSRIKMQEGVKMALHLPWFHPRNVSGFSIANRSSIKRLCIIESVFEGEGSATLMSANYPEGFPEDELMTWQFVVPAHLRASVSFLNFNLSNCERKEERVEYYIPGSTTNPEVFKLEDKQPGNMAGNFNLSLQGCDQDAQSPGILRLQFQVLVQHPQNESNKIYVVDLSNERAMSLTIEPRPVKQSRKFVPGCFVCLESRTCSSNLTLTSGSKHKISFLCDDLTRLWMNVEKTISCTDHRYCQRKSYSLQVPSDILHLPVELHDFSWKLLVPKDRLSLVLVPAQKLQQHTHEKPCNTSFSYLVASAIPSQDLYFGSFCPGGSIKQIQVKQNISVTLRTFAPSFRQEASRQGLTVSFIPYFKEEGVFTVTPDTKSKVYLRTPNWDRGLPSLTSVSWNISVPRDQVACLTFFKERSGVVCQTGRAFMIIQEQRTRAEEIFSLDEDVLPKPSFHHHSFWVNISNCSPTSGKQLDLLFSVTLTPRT
assay explanation: ELISA on captured SBP-CDCP1-ECD, ratio relative to chimeric CUB4 (chHC4)
attribute measured: binding result

INSERT INTO assay_data (binder, observed_value) VALUES
  ('hHC4-K / hLC4-c (antibody, V domains shown) VH: EVQLVESGGGLVKPGGSLRLSCAASGFTFNSYGMSWVRQAPGKGLEWVSSISSGGSYIYYADSVKGRFTISRDNAKNSLYLQMNSLRAEDTAVYYCARHPDYDGVWFAYWGQGTLVTVSS VL: EIVMTQSPATLSVSPGERATLSCSVSSSVFYVHWYQQKPGQAPRLLIYDTSKLASGIPARFSGSGSGTEFTLTISSLQSEDFAVYYCQQWNSNPPTFGGGTKVEIK', 'no binding'),
  ('hHC4-K / hLC4-I (antibody, V domains shown) VH: EVQLVESGGGLVKPGGSLRLSCAASGFTFNSYGMSWVRQAPGKGLEWVSSISSGGSYIYYADSVKGRFTISRDNAKNSLYLQMNSLRAEDTAVYYCARHPDYDGVWFAYWGQGTLVTVSS VL: EIVMTQSPATLSLSPGERATLSCRASSSVFYLSWYQQKPGQAPRLWIYDTSKLASGIPARFSGSGSGTDFTLTISSLQPEDFAVYYCQQWNSNPPTFGGGTKVEIK', 'no binding'),
  ('hHC4-I / hLC4-I (antibody, V domains shown) VH: EVQLLESGGGLVQPGGSLRLSCAASGFTFNSYAMSWVRQAPGKGLEWVSAISSGGSYTYYADSVKGRFTISRDNSKNTLYLQMNSLRAEDTAVYYCAKHPDYDGVWFAYWGQGTLVTVSS VL: EIVMTQSPATLSLSPGERATLSCRASSSVFYLSWYQQKPGQAPRLWIYDTSKLASGIPARFSGSGSGTDFTLTISSLQPEDFAVYYCQQWNSNPPTFGGGTKVEIK', 'no binding');
